Test: ACEA_ER_AUC_viability: ACEA Biosciences xCELLigence Real-Time Cell Analysis on Estrogen Receptor Agonism for Viability (AID 2283782);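 further: continuous compound exposure with impedance area under curve over 80 h; hit means loss of impedance signal meaning reduced cell growth or viability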
Results filed as inconclusive are left out. Active and inactive are the calls of the source. How the source made its calls: active means hit-call score of the fitted dose curve at least 0.9, where 1 is the maximum; inconclusive means response in the unintended direction; inactive means score below 0.9.
Output constraint: value belongs to active, inactive

Consider the worked cases shown below.
- COMPOUND: "CCCCNP(N)(N)=S"
  GROUP LABEL: "inactive"
- COMPOUND: "CC(Cc1ccc(C(C)(C)C)cc1)CN1C[C@@H](C)O[C@@H](C)C1 (some centres undefined)"
  GROUP LABEL: "active"
- COMPOUND: "Nc1ccccc1"
  GROUP LABEL: "inactive"
- COMPOUND: "O=C(CCl)c1ccccc1"
  GROUP LABEL: "active"

Recorded call for `ClC1=C(Cl)[C@]2(Cl)[C@@H]3[C@@H](Cl)[C@H](Cl)C[C@@H]3[C@@]1(Cl)C2(Cl)Cl` ?
inactive

Now the compound `Cc1ccc(C)c2ccccc12`
inactive

Now consider `O=C(CCN1CC1)OCC(CO)(COC(=O)CCN1CC1)COC(=O)CCN1CC1` .
active

Same again, this time with `O=P(O)(Oc1ccccc1)Oc1ccccc1`
inactive

// same read-out, input: `c1ccc(P(c2ccccc2)c2ccccc2)cc1`
active

Please answer likewise for CCC1CCC(=O)O1 (centres undefined)
inactive

And the next one, `c1ccc(Nc2ccc3ccccc3c2)cc1` ?
active

Another: `O=[N+]([O-])c1ccc(Cl)cc1`
inactive

# repeat for `Nc1ccc(-c2ccc(N)c(N)c2)cc1N`
inactive

Same question for `[Cl][Sb]([Cl])[Cl]` please.
active

Try this compound too: `O=C(O)c1ccccc1C(=O)Nc1cccc2ccccc12`
active

How about this compound: `Cl/C=C\CCl`
inactive

Do the same for O=P1(NCCCl)OCCCN1CCCl (centres undefined) please
active

----------
Biological target: Aryl hydrocarbon receptor (Homo sapiens)
Test: ATG_Ahr_CIS: Attagene CIS-FACTORIAL HepG2 Assay for human Aryl Hydrocarbon Receptor (Ahr) (AID 2282930)
Conditions: HepG2 AhR cis-factorial reporter transcription; actives raise or lower the signal
The source made the active and inactive calls. Rule for the calls: active = hit-call score of the fitted dose curve at least 0.9, where 1 is the maximum; inactive = score below 0.9.
MEASURED ENDPOINT: outcome

- COMPOUND: "Oc1ccc(C2(c3ccc(O)cc3)c3ccccc3-c3ccccc32)cc1"
  outcome: "inactive"
- COMPOUND: "O=C(O)CCCc1ccc(N(CCCl)CCCl)cc1"
  outcome: "inactive"
- COMPOUND: "CCOP(=O)(OCC)OCC"
  outcome: "inactive"
- COMPOUND: "CNC(=N[N+](=O)[O-])NCC1CCOC1 (stereo not given)"
  outcome: "inactive"
- COMPOUND: "CC(C)(C)C(O)C(Oc1ccc(-c2ccccc2)cc1)n1cncn1 (stereo not given)"
  outcome: "inactive"
- COMPOUND: "Oc1cc(Cl)ccc1Cl"
  outcome: "inactive"
- COMPOUND: "CCOC(=O)C1OC1(C)c1ccccc1 (stereo not given)"
  outcome: "inactive"
- COMPOUND: "Clc1ccc(-c2ccccc2)cc1"
  outcome: "inactive"

Give the measured outcome of `CCN(CC)C(=S)S` .
inactive

What do you have for O=P1(NCCCl)OCCCN1CCCl (stereo not given) ?
inactive

What about this compound? `O=[N+]([O-])O.O=[N+]([O-])O.[Cd]`
inactive

Then this compound: `O=S(=O)(O)OOS(=O)(=O)O`
inactive

`BrCBr` , same question.
inactive

// query: `CC1(C)CC(=O)CC(C)(C)N1[O]`
inactive

Would you kindly repeat that for `O=S(=O)(O)O` ?
inactive
